For each of the sequences below, state its protein stability index.
test system: Saccharomyces cerevisiae; test: protein stability index of tFT-peptide fusion (C-terminal peptide) (PSI (0-1 scale)); higher = more stable (slower turnover); conditions: genetic background: wild type; temperature: 30 C
Could you keep your reply to the number by itself?

Prompt: Form field: protein stability index recorded for PVPPRSPPRLPF with Saccharomyces cerevisiae (enter value)
Completion: 0.667

Prompt: Form field: protein stability index recorded for VVMASSIIVVAG with Saccharomyces cerevisiae (enter value)
Completion: 0.253

Prompt: Form field: protein stability index recorded for AVEVRATVWWWW with Saccharomyces cerevisiae (enter value)
Completion: 0.533

Prompt: Form field: protein stability index recorded for RLICFFSMYLRF with Saccharomyces cerevisiae (enter value)
Completion: 0.334

Prompt: Form field: protein stability index recorded for GAVWAWRRLKGG with Saccharomyces cerevisiae (enter value)
Completion: 0.619

Prompt: Form field: protein stability index recorded for LLNLLLFLLPPS with Saccharomyces cerevisiae (enter value)
Completion: 0.636

Prompt: Form field: protein stability index recorded for IVRTDTKPYEQS with Saccharomyces cerevisiae (enter value)
Completion: 0.587

Prompt: Form field: protein stability index recorded for PSKTTALTGPDP with Saccharomyces cerevisiae (enter value)
Completion: 0.737

Prompt: Form field: protein stability index recorded for PPLPPLPLAPPY with Saccharomyces cerevisiae (enter value)
Completion: 0.693

Prompt: Form field: protein stability index recorded for ESVVKNDVTYVQ with Saccharomyces cerevisiae (enter value)
Completion: 0.691

Prompt: Form field: protein stability index recorded for LVSLSPCPSSPL with Saccharomyces cerevisiae (enter value)
Completion: 0.671

Prompt: Form field: protein stability index recorded for GWRHFVLFWCGL with Saccharomyces cerevisiae (enter value)
Completion: 0.752

Prompt: Form field: protein stability index recorded for FLVEPSGRSATW with Saccharomyces cerevisiae (enter value)
Completion: 0.741

Prompt: Form field: protein stability index recorded for FGDPRRTDPLRL with Saccharomyces cerevisiae (enter value)
Completion: 0.631

Prompt: Form field: protein stability index recorded for KGGLLPWGPWNA with Saccharomyces cerevisiae (enter value)
Completion: 0.743

Prompt: Form field: protein stability index recorded for DYRTLGPAPDKS with Saccharomyces cerevisiae (enter value)
Completion: 0.74

Prompt: Form field: protein stability index recorded for PITKLHRHYARG with Saccharomyces cerevisiae (enter value)
Completion: 0.697

Prompt: Form field: protein stability index recorded for NKKTYHRPTKNY with Saccharomyces cerevisiae (enter value)
Completion: 0.693

Prompt: Form field: protein stability index recorded for FLACYSSFLFVS with Saccharomyces cerevisiae (enter value)
Completion: 0.149

---

For each of the sequences below, state its protein stability index.
tested on: Saccharomyces cerevisiae; test: protein stability index of tFT-peptide fusion (C-terminal peptide) (PSI (0-1 scale)); higher = more stable (slower turnover); details: genetic background: wild type; temperature: 30 C;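 further: PSI is a weighted mean of sequencing reads over stability bins, variants kept only with over 10 reads, mCherry proximal and sfGFP distal, peptide attached via GGGS linker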
Could you keep your reply to the number by itself?

Prompt: Endpoint output: protein stability index of GVVVIVKYKMGV . Value?
Completion: 0.579

Prompt: Endpoint output: protein stability index of ENQGQKQKKKKR . Value?
Completion: 0.753

Prompt: Endpoint output: protein stability index of GGGAGGEAVRVW . Value?
Completion: 0.655

Prompt: Endpoint output: protein stability index of VEEDPSSQLVIF . Value?
Completion: 0.599

Prompt: Endpoint output: protein stability index of LPPFRFSLPFRR . Value?
Completion: 0.712

Prompt: Endpoint output: protein stability index of LLLDRGISLLLL . Value?
Completion: 0.607

Prompt: Endpoint output: protein stability index of RCWVTVIRSVRS . Value?
Completion: 0.601

Prompt: Endpoint output: protein stability index of KKKKKNKKENAE . Value?
Completion: 0.742

Prompt: Endpoint output: protein stability index of NPARPRPPPRER . Value?
Completion: 0.595

Prompt: Endpoint output: protein stability index of PCSVDKAGSTKK . Value?
Completion: 0.606

Prompt: Endpoint output: protein stability index of PPTFPPLLSPPP . Value?
Completion: 0.661

Prompt: Endpoint output: protein stability index of GCLPGGKRESRG . Value?
Completion: 0.647

Prompt: Endpoint output: protein stability index of DFSSLIISFPFI . Value?
Completion: 0.627

Prompt: Endpoint output: protein stability index of ETHRANTRMERL . Value?
Completion: 0.726

Prompt: Endpoint output: protein stability index of PVAVSQPNGPKD . Value?
Completion: 0.633

Prompt: Endpoint output: protein stability index of LTTPTIAKTREN . Value?
Completion: 0.691

Prompt: Endpoint output: protein stability index of MWFVGLCLHFFM . Value?
Completion: 0.399

Prompt: Endpoint output: protein stability index of GCSPTLMVSFIA . Value?
Completion: 0.572

Prompt: Endpoint output: protein stability index of FSFSCFFFVLFV . Value?
Completion: 0.127

Prompt: Endpoint output: protein stability index of PALPPAPPPPPP . Value?
Completion: 0.693

Prompt: Endpoint output: protein stability index of PPLSLPSSCPSP . Value?
Completion: 0.652

Prompt: Endpoint output: protein stability index of RGGVGGSVSFWW . Value?
Completion: 0.707

Prompt: Endpoint output: protein stability index of RITVPIGYHSVS . Value?
Completion: 0.689

Prompt: Endpoint output: protein stability index of QKKKKKNKNDQK . Value?
Completion: 0.686

Prompt: Endpoint output: protein stability index of PHRSVSRLTILS . Value?
Completion: 0.658

Prompt: Endpoint output: protein stability index of LRVGMWNNVINR . Value?
Completion: 0.734

Prompt: Endpoint output: protein stability index of KENKKNDRRDII . Value?
Completion: 0.728

Prompt: Endpoint output: protein stability index of PLPPPLLPPSSS . Value?
Completion: 0.73

Prompt: Endpoint output: protein stability index of VVVAWGGGAVVG . Value?
Completion: 0.684

Prompt: Endpoint output: protein stability index of SRAPRDVFSPPM . Value?
Completion: 0.72

Prompt: Endpoint output: protein stability index of AGPPPERDPGAS . Value?
Completion: 0.684

Prompt: Endpoint output: protein stability index of AVRELIRASGPG . Value?
Completion: 0.642

Prompt: Endpoint output: protein stability index of FMVIRVGGWGVL . Value?
Completion: 0.646

Prompt: Endpoint output: protein stability index of HRPRPLLKLLAS . Value?
Completion: 0.145

Prompt: Endpoint output: protein stability index of PPLRLASSPPPV . Value?
Completion: 0.736

Prompt: Endpoint output: protein stability index of RSSGHQIRDKSA . Value?
Completion: 0.74

Prompt: Endpoint output: protein stability index of PRPPPPSVARVP . Value?
Completion: 0.647

Prompt: Endpoint output: protein stability index of DTVTGNWGVGLG . Value?
Completion: 0.657

Prompt: Endpoint output: protein stability index of FPRLYHPNIKLP . Value?
Completion: 0.716

Prompt: Endpoint output: protein stability index of PHPHLPPARSPP . Value?
Completion: 0.675

Prompt: Endpoint output: protein stability index of TGSGQVSREERS . Value?
Completion: 0.671
